Could you please report measured pEC50 for the items listed next?
Target: T1, human PTK7-Fc protein antigen (human, UniProt Q13308 31-704)
T1 construct: extracellular domain; also called human PTK7 extracellular segment protein; not shown: Fc from the pFUSE-IgG recombinant plasmid
T1 sequence (looked up): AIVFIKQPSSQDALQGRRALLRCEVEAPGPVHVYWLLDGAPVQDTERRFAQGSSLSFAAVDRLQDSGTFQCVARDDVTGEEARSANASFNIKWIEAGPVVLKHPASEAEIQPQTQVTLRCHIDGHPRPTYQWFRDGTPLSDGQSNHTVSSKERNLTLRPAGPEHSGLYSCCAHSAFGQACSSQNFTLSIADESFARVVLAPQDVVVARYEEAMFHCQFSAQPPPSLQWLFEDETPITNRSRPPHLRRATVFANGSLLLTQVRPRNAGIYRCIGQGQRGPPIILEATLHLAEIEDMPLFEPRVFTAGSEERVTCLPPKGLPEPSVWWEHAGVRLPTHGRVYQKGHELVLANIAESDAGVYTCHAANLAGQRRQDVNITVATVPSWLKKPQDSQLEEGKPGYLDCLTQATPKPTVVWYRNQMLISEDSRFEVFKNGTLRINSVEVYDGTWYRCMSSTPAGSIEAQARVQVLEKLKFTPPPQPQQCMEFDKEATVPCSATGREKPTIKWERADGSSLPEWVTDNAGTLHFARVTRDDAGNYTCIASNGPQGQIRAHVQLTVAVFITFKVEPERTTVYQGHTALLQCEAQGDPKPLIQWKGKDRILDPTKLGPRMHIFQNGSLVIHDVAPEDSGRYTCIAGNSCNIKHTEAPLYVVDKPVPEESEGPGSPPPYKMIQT
Assay: ELISA, antigen coated on plate, VHH in gradient dilution, anti-His/anti-HA-HRP; Kd calculated from absorbance at 450 nm
Protocol: The ELISA plates were coated with PTK7-Fc antigen proteins from human, or mouse species, or PTK7-His antigen protein from rhesus monkey species, overnight at 4° C. The plates were washed for 4 times with PBS-T the next day, added with 1% BSA, and blocked at room temperature for 2 hours. […] The absorption value was read at a wavelength of 450 nm and the Kd value of each single domain antibody was calculated based on the absorption value. […]
Numbers only, as −log10 of the molar value.

These solved cases illustrate the format of a correct answer.
MY2132-5-51 (VHH, Camel VHH expressed in E. coli WK6 and purified on a nickel column; also called MY2132-5-51 VHH; anti-PTK7 single domain antibody) VHH: QVQLQESGGGLVQPGGSLTLACAASGFAFSSYAMRWVRQAPGKGLEGVSSISAGGDETYYADFAKGRFTISRDNAKNTLYLQLNSLKTEDTAMYYCAKGDRNSPRYSSWPITPVGQGTQVTVSS	9.21
MY2132-4-22 (VHH, Camel VHH expressed in E. coli WK6 and purified on a nickel column; also called MY2132-4-22 VHH; anti-PTK7 single domain antibody) VHH: QVQLQESGGGSVQAGGSLRLSCTASGFTFDDYDMVWYRQAPGNEYEWLSTVSRGGNLYYADSVKGRFTISRDNAKNTVYLNMSRVKPEDTAVYYCAADLRSVPSTYRARTCRGRYCRDYWGQGTQVTVSS	9.48
MY2132-4-55 (VHH, Camel VHH expressed in E. coli WK6 and purified on a nickel column; also called MY2132-4-55 VHH; anti-PTK7 single domain antibody) VHH: QVQLQESGGGSVQAGGSLRLSCAASGYIWSRYCMGWFRQAPGKAREGVARFNSDGNTRYVDSVKGRFTISRDNAKNTLYLQMNNLQPEDTARYYCAADPRFDCGYDAVFNPTHFPYWGRGTQVTVSS	9.31

As a next step, examine the binder that follows.
[Q] Any idea what its pEC50 is? The binder is MY2132-4-79 (VHH, Camel VHH expressed in E. coli WK6 and purified on a nickel column; also called MY2132-4-79 VHH; anti-PTK7 single domain antibody) VHH: QVQLQESGGGSVQAGGSLRLSCAASGYIWSRYCMGWFRQAPGKAREGVARFNSDGNTRYVDSVKGRFTISRDNAKNTLYLQMNNLQPEDTARYYCAADPRFDCGYDAVFNPTHFPYWGQGTQVTVSS
[A] 9.23
